The reported measurements were obtained from the supplement of paper PMC8728848.

ASSAYED_TARGET: Gal(b1-3)Gal(b1-4)GlcNAc
ASSAY_SUMMARY: glycan array binding signal (z-score within array); higher = stronger binding
CONDITION_SET: glycan notation: IUPAC condensed, linker removed
The entries come from a sample that favours the strongest signals as a whole.
Mark NO for glycan array binding signal (z-score) values under -0.1, and YES for everything at or above.

{"columns": ["BINDER", "GROUP_LABEL"],
 "data": [
  ["Epa3 (Candida glabrata), Q6VBI8_CANGB (protein) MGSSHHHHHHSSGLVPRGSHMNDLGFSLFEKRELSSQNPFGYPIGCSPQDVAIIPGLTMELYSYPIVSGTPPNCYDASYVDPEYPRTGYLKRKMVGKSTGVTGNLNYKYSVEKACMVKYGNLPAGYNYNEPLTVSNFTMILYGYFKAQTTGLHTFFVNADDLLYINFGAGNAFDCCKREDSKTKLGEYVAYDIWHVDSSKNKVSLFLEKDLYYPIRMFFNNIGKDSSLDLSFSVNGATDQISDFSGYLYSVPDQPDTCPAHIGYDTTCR", "YES"],
  ["CBM13 2a (Mycobacterium tuberculosum), P64849 (protein) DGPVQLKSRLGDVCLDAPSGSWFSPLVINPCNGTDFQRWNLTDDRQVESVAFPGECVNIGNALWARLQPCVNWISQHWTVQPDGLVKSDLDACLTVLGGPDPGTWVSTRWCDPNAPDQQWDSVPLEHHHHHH", "NO"],
  ["Pwp7 (Candida glabrata) (protein) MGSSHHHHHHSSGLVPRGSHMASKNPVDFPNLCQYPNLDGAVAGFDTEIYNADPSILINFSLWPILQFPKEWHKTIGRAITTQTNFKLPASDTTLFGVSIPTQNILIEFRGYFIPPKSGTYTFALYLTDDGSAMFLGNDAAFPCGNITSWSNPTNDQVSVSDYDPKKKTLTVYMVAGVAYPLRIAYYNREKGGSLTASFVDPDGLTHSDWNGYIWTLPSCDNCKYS", "YES"],
  ["Epa6 (Candida glabrata), Q6DTM7_CANGB (protein) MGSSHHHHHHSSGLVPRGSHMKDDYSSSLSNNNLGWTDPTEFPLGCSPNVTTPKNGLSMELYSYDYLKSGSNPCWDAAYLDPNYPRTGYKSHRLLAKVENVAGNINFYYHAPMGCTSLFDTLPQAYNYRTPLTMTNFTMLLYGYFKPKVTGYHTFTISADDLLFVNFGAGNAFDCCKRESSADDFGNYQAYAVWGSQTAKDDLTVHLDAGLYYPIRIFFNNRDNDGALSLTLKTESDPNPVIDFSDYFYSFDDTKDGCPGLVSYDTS", "YES"],
  ["LecB PA14 (Pseudomonas aeruginosa) (protein) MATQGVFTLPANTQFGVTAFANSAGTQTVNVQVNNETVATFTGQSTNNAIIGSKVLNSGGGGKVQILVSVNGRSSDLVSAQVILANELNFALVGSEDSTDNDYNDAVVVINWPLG", "NO"],
  ["FimA-N1 (Actinomyces oris) (protein) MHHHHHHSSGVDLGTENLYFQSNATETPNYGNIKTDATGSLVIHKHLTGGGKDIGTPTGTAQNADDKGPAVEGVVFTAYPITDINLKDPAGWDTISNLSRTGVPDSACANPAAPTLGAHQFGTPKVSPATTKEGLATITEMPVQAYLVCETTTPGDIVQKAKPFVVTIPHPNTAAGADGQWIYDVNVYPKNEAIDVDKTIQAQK", "NO"]
]}
